The measured values listed here are drawn from ChEMBL document CHEMBL3351820.

Reported MIC values for the following molecules.
# Test system: Candida albicans
# assay.text: Antifungal activity against Candida albicans ATCC 24433 after 48 to 72 hrs by M27-A method
# Type: functional
Where a SMILES comes first, the peptide text is derived from it. [ ]: non-standard residue; d: D form. The star is where a group is joined. Stearoyl = CCCCCCCCCCCCCCCCCC(=O)*; Lauroyl = CCCCCCCCCCCC(=O)*; 3Abz = Nc1cccc(C(=O)O)c1; Orn = NCCC[CH](N)C(=O)O
Note: unit µg/mL is implicit; provide only the numeric part.

// known answers, use as guide
>  <molecule>
CCCCCCCCCCCC(=O)Nc1cccc(C(=O)NC(CCCN)C(=O)NC(CCCN)C(=O)NC(CCCN)C(=O)NC(CCCN)C(N)=O)c1 (stereo not given) ({Lauroyl-3Abz}-[Orn][Orn][Orn][Orn]-NH2; configuration not given here)

>  <MIC, µg/mL>
5.5

$$$$
>  <molecule>
CCCCCCCCCCCCCCCCCC(=O)Nc1cccc(C(=O)NC(CCCN)C(=O)NC(CCCN)C(=O)NC(CCCN)C(N)=O)c1 (stereo not given)

>  <MIC, µg/mL>
2.25

$$$$
>  <molecule>
CCCCCCCCCCCCCCCCCC(=O)Nc1cccc(C(=O)NC(CCCN)C(=O)NC(CCCN)C(=O)NC(CCCN)C(=O)NC(CCCN)C(N)=O)c1 (stereo not given) ({Stearoyl-3Abz}-[Orn][Orn][Orn][Orn]-NH2; configuration not given here)

>  <MIC, µg/mL>
1.5

$$$$

Measured MIC for this entry CCCCCCCCCC(=O)Nc1cccc(C(=O)NC(CCCN)C(=O)NC(CCCN)C(=O)NC(CCCN)C(N)=O)c1 (stereo not given) on Candida albicans: 62.5

Per the reported Candida albicans data, C[C@@H]1[C@H](O)[C@@H](C)/C=C/C=C/C=C/C=C/C=C/C=C/C=C/[C@H](O[C@@H]2O[C@H](C)[C@@H](O)[C@H](N)[C@@H]2O)C[C@@H]2O[C@](O)(C[C@@H](O)C[C@@H](O)[C@H](O)CC[C@@H](O)C[C@@H](O)CC(=O)O[C@H]1C)C[C@H](O)[C@H]2C(=O)O [AMPHOTERICIN B] has MIC of 0.5

----------
This section presents compounds with their documented selectivity ratio values.
# assay.text: Therapeutic index, ratio of HC50 for human RBCs to MIC for Staphylococcus aureus MTCC 3160
# run.parameters: red blood cells (RBCs), read-out: TI
Where a SMILES comes first, the peptide text is derived from it. [ ]: non-standard residue; d: D form. The star is where a group is joined. Stearoyl = CCCCCCCCCCCCCCCCCC(=O)*; Lauroyl = CCCCCCCCCCCC(=O)*; 3Abz = Nc1cccc(C(=O)O)c1; Orn = NCCC[CH](N)C(=O)O

Worked cases, selectivity ratio given:
>  <compound>
CCCCCCCCCCCCCCCCCC(=O)Nc1cccc(C(=O)NC(CCCN)C(=O)NC(CCCN)C(=O)NC(CCCN)C(=O)NC(CCCN)C(N)=O)c1 (centres undefined) ({Stearoyl-3Abz}-[Orn][Orn][Orn][Orn]-NH2; configuration not given here)

>  <selectivity ratio>
20

$$$$
>  <compound>
CCCCCCCCCCCC(=O)Nc1cccc(C(=O)NC(CCCN)C(=O)NC(CCCN)C(=O)NC(CCCN)C(=O)NC(CCCN)C(N)=O)c1 (centres undefined) ({Lauroyl-3Abz}-[Orn][Orn][Orn][Orn]-NH2; configuration not given here)

>  <selectivity ratio>
300

$$$$
>  <compound>
CCCCCCCCCCCC(=O)Nc1cccc(C(=O)NC(CCCN)C(=O)NC(CCCN)C(=O)NC(CCCN)C(N)=O)c1 (centres undefined)

>  <selectivity ratio>
144

$$$$

Could you now consider this next compound?
CCCCCCCCCCCCCC(=O)Nc1cccc(C(=O)NC(CCCN)C(=O)NC(CCCN)C(=O)NC(CCCN)C(N)=O)c1 (centres undefined) has a reported selectivity ratio of 242

----------
Below: a set of entries, each annotated with reported selectivity ratio.
# assay.text: Therapeutic index, ratio of HC50 for human RBCs to MIC for Escherichia coli MTCC 0723
# run.parameters: red blood cells (RBCs), read-out: TI
Where a SMILES comes first, the peptide text is derived from it. [ ]: non-standard residue; d: D form. The star is where a group is joined. Palmitoyl = CCCCCCCCCCCCCCCC(=O)*; Decanoyl = CCCCCCCCCC(=O)*; 3Abz = Nc1cccc(C(=O)O)c1; Orn = NCCC[CH](N)C(=O)O
API note: the answer field is a bare number with no unit suffix.

Some molecules with known selectivity ratio results, for comparison:
>  <molecule>
CCCCCCCCCCCCCC(=O)Nc1cccc(C(=O)NC(CCCN)C(=O)NC(CCCN)C(=O)NC(CCCN)C(N)=O)c1 (centres undefined)

>  <quantitative.readout>
333

$$$$
>  <molecule>
CCCCCCCCCCCCCCCCCC(=O)Nc1cccc(C(=O)NC(CCCN)C(=O)NC(CCCN)C(=O)NC(CCCN)C(N)=O)c1 (centres undefined)

>  <quantitative.readout>
40

$$$$
>  <molecule>
CCCCCCCCCCCCCCCC(=O)Nc1cccc(C(=O)NC(CCCN)C(=O)NC(CCCN)C(=O)NC(CCCN)C(=O)NC(CCCN)C(N)=O)c1 (centres undefined) ({Palmitoyl-3Abz}-[Orn][Orn][Orn][Orn]-NH2; configuration not given here)

>  <quantitative.readout>
175

$$$$

Next molecule, selectivity ratio to be filled in.
So for CCCCCCCCCC(=O)Nc1cccc(C(=O)NC(CCCN)C(=O)NC(CCCN)C(=O)NC(CCCN)C(=O)NC(CCCN)C(N)=O)c1 (centres undefined) ({Decanoyl-3Abz}-[Orn][Orn][Orn][Orn]-NH2; configuration not given here) , the logged selectivity ratio turned out to be 57.1

----------
# assay.text: Therapeutic index, ratio of HC50 for human RBCs to MIC for Staphylococcus aureus MTCC 3160
# run.parameters: red blood cells (RBCs), read-out: TI
Where a SMILES comes first, the peptide text is derived from it. [ ]: non-standard residue; d: D form. The star is where a group is joined. Palmitoyl = CCCCCCCCCCCCCCCC(=O)*; Myristoyl = CCCCCCCCCCCCCC(=O)*; Decanoyl = CCCCCCCCCC(=O)*; 3Abz = Nc1cccc(C(=O)O)c1; Orn = NCCC[CH](N)C(=O)O
Entries annotated with measured selectivity ratio
Write the number on its own, no unit after it.

>  <compound>
CCCCCCCCCC(=O)Nc1cccc(C(=O)NC(CCCN)C(=O)NC(CCCN)C(=O)NC(CCCN)C(=O)NC(CCCN)C(N)=O)c1 (stereo not given) ({Decanoyl-3Abz}-[Orn][Orn][Orn][Orn]-NH2; configuration not given here)

>  <selectivity ratio>
50

$$$$
>  <compound>
CCCCCCCCCCCCCCCC(=O)Nc1cccc(C(=O)NC(CCCN)C(=O)NC(CCCN)C(=O)NC(CCCN)C(N)=O)c1 (stereo not given)

>  <selectivity ratio>
90

$$$$
>  <compound>
CCCCCCCCCCCCCCCC(=O)Nc1cccc(C(=O)NC(CCCN)C(=O)NC(CCCN)C(=O)NC(CCCN)C(=O)NC(CCCN)C(N)=O)c1 (stereo not given) ({Palmitoyl-3Abz}-[Orn][Orn][Orn][Orn]-NH2; configuration not given here)

>  <selectivity ratio>
117

$$$$
>  <compound>
CCCCCCCCCCCCCCCCCC(=O)Nc1cccc(C(=O)NC(CCCN)C(=O)NC(CCCN)C(=O)NC(CCCN)C(N)=O)c1 (stereo not given)

>  <selectivity ratio>
20

$$$$

// moving on: another record for selectivity ratio
The recorded selectivity ratio for CCCCCCCCCCCCCC(=O)Nc1cccc(C(=O)NC(CCCN)C(=O)NC(CCCN)C(=O)NC(CCCN)C(=O)NC(CCCN)C(N)=O)c1 (stereo not given) ({Myristoyl-3Abz}-[Orn][Orn][Orn][Orn]-NH2; configuration not given here) is 333

----------
# System: Candida albicans
# assay.text: Antifungal activity against Candida albicans ATCC 24433 after 48 to 72 hrs by M27-A method
# Format: functional
Where a SMILES comes first, the peptide text is derived from it. [ ]: non-standard residue; d: D form. The star is where a group is joined. Palmitoyl = CCCCCCCCCCCCCCCC(=O)*; Myristoyl = CCCCCCCCCCCCCC(=O)*; Decanoyl = CCCCCCCCCC(=O)*; 3Abz = Nc1cccc(C(=O)O)c1; Orn = NCCC[CH](N)C(=O)O
endpoint: MIC (µg/mL)
I only need the number, in µg/mL, no unit after it.

Here are 3 molecules together with their reported answers.
>  <molecule>
CCCCCCCCCCCCCCCC(=O)Nc1cccc(C(=O)NC(CCCN)C(=O)NC(CCCN)C(=O)NC(CCCN)C(=O)NC(CCCN)C(N)=O)c1 (stereo unspecified) ({Palmitoyl-3Abz}-[Orn][Orn][Orn][Orn]-NH2; configuration not given here)

>  <units>
µg/mL

>  <MIC>
2

$$$$
>  <molecule>
CCCCCCCCCCCCCC(=O)Nc1cccc(C(=O)NC(CCCN)C(=O)NC(CCCN)C(=O)NC(CCCN)C(N)=O)c1 (stereo unspecified)

>  <units>
µg/mL

>  <MIC>
5.5

$$$$
>  <molecule>
CCCCCCCCCCCC(=O)Nc1cccc(C(=O)NC(CCCN)C(=O)NC(CCCN)C(=O)NC(CCCN)C(N)=O)c1 (stereo unspecified)

>  <units>
µg/mL

>  <MIC>
15.5

$$$$

Value of MIC reported for the molecule CCCCCCCCCCCCCC(=O)Nc1cccc(C(=O)NC(CCCN)C(=O)NC(CCCN)C(=O)NC(CCCN)C(=O)NC(CCCN)C(N)=O)c1 (stereo unspecified) ({Myristoyl-3Abz}-[Orn][Orn][Orn][Orn]-NH2; configuration not given here) is 3.1

Measured MIC of CCCCCCCCCC(=O)Nc1cccc(C(=O)NC(CCCN)C(=O)NC(CCCN)C(=O)NC(CCCN)C(=O)NC(CCCN)C(N)=O)c1 (stereo unspecified) ({Decanoyl-3Abz}-[Orn][Orn][Orn][Orn]-NH2; configuration not given here) : 50

The value of MIC measured for the molecule CCCCCCCCCCCCCCCC(=O)Nc1cccc(C(=O)NC(CCCN)C(=O)NC(CCCN)C(=O)NC(CCCN)C(N)=O)c1 (stereo unspecified) turned out to be 3
